Field: IC50. Provide a value for each of the molecules that follow.
# Target Entity: human IL-23R (Homo sapiens, UniProt Q5VWK5)
# Construct: Nanoluc luciferase (Nluc); secretion signal encoded by the plasmid (not specified); expressed in transfected cells; crude membranes used in the assay
# Method Description: Binding assay: displacement of fluorophore (TAMRA)-labelled reference compound from human IL-23R (BRET, Nluc-IL23R fusion protein membranes)
*1 amine or outer side, *2 acyl side, *3 side chain or, on linkers, in order; H or OH if unused. Where a SMILES comes first, the peptide text is derived from it. Bridges are numbered along the chain shown (N, C = ends). [ ]: non-standard residue; d: D form. 2Nal = N[C@@H](Cc1ccc2ccccc2c1)C(=O)O; AEF = NCCOc1ccc(C[C@H](N)C(=O)O)cc1; X1 = O=C(Cc1ccc(CN[*:1])cc1)[*:2]; 3Pal = N[C@@H](Cc1cccnc1)C(=O)O; NMeA = CN[C@@H](C)C(=O)O; Dab = NCC[C@H](N)C(=O)O; Aib = CC(C)(N)C(=O)O

CNC(=O)[C@H](Cc1cccnc1)NC(=O)[C@H](CCN)NC(=O)[C@@H]1CCC(=O)NCc2ccc(cc2)CC(=O)N(C)[C@@H](C)C(=O)N[C@H]2CCC(=O)NCC[C@H](NC(=O)[C@H](CCC(N)=O)NC(=O)[C@H](Cc3c[nH]c4ccccc34)NC2=O)C(=O)N[C@@H](Cc2ccc(OCCN)cc2)C(=O)N[C@@H](Cc2ccc3ccccc3c2)C(=O)NC(C)(C)C(=O)N1 [Compound 48] ([X1][NMeA]EWQ[Dab][AEF][2Nal][Aib]E[Dab][3Pal]-NHMe; lactam 3-6, N-10)
0.01 nM

Shift focus to the following entry.
Input: Please provide the recorded IC50 for CC(C)C[C@]1(C)NC(=O)[C@H](Cc2ccc3ccccc3c2)NC(=O)[C@H](Cc2ccc(OCCN)cc2)NC(=O)[C@@H]2CCNC(=O)CC[C@H](NC(=O)[C@H](CO)NC(=O)Cc3ccc(cc3)CNC(=O)CC[C@@H](C(=O)N[C@@H](CCN)C(=O)N(C)[C@@H](Cc3cccnc3)C(N)=O)NC1=O)C(=O)N[C@@H](Cc1c[nH]c3ccccc13)C(=O)N[C@@H](CCC(N)=O)C(=O)N2 , tested on human IL-23R (Homo sapiens, UniProt Q5VWK5).
Output: 0.17 nM

---

# Target Entity: human IL-23R (Homo sapiens)
# Construct: Nanoluc luciferase (Nluc); secretion signal encoded by the plasmid (not specified); crude membranes used in the assay
# Sequence (Q5VWK5 22-629): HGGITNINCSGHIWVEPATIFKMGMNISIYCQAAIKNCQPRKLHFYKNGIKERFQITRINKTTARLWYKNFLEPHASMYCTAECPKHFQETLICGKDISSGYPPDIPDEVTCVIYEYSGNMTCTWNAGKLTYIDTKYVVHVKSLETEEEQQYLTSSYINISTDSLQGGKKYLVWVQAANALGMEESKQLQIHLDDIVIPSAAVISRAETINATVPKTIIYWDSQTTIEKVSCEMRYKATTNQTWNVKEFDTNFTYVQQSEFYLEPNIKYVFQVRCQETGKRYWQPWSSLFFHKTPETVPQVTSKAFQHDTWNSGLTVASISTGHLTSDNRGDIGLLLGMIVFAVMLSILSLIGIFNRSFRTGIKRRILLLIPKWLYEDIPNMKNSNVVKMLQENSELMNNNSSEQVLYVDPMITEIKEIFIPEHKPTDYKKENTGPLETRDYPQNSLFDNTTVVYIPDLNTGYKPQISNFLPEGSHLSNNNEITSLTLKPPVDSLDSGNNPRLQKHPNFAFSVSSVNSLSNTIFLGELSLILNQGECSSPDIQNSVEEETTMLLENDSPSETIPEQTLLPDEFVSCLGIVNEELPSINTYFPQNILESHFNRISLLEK
# Method Description: Binding assay: displacement of fluorophore (TAMRA)-labelled reference compound from human IL-23R (BRET, Nluc-IL23R fusion protein membranes)
*1 amine or outer side, *2 acyl side, *3 side chain or, on linkers, in order; H or OH if unused. Where a SMILES comes first, the peptide text is derived from it. Bridges are numbered along the chain shown (N, C = ends). [ ]: non-standard residue; d: D form. The star is where a group is joined. 2Nal = N[C@@H](Cc1ccc2ccccc2c1)C(=O)O; AEF = NCCOc1ccc(C[C@H](N)C(=O)O)cc1; X1 = O=C(Cc1ccc(CN[*:1])cc1)[*:2]; αMeL = CC(C)C[C@](C)(N)C(=O)O; Pyrrolidide = C1CCN(*)C1; Dab = NCC[C@H](N)C(=O)O
Property Name: IC50 (nM)
Numbers only, in nM.

Input: // lookup IC50 for CC(C)C[C@]1(C)NC(=O)[C@H](Cc2ccc3ccccc3c2)NC(=O)[C@H](Cc2ccc(OCCN)cc2)NC(=O)[C@@H]2CCNC(=O)CC[C@H](NC(=O)[C@H](CO)NC(=O)Cc3ccc(cc3)CNC(=O)CC[C@@H](C(=O)N[C@@H](CCN)C(N)=O)NC1=O)C(=O)N[C@@H](Cc1c[nH]c3ccccc13)C(=O)N[C@@H](CCC(=O)N1CCCC1)C(=O)N2 [Ref 146, reference compound] ([X1]SEWE(Pyrrolidide)[Dab][AEF][2Nal][αMeL]E[Dab]-NH2; lactam 3-6, N-10)
Output: 1.2

---

# Method Description: Peptide stability in simulated gastric fluid (SGF)
# Assay type: in vitro ADME
# Measurement Conditions: pig, 1 h, pH 1.2, pepsin, 37° C.
*1 amine or outer side, *2 acyl side, *3 side chain or, on linkers, in order; H or OH if unused. Where a SMILES comes first, the peptide text is derived from it. Bridges are numbered along the chain shown (N, C = ends). [ ]: non-standard residue; d: D form. The star is where a group is joined. 2Nal = N[C@@H](Cc1ccc2ccccc2c1)C(=O)O; AEF = NCCOc1ccc(C[C@H](N)C(=O)O)cc1; X1 = O=C(Cc1ccc(CN[*:1])cc1)[*:2]; 3Pal = N[C@@H](Cc1cccnc1)C(=O)O; αMeL = CC(C)C[C@](C)(N)C(=O)O; Pyrrolidide = C1CCN(*)C1; Dab = NCC[C@H](N)C(=O)O
Property Name: remaining at 1 h, 10 µM (%)
Numbers only, in %.

CNC(=O)[C@H](Cc1cccnc1)NC(=O)[C@H](CCN)NC(=O)[C@@H]1CCC(=O)NCc2ccc(cc2)CC(=O)N[C@@H](CO)C(=O)N[C@H]2CCC(=O)NCC[C@H](NC(=O)[C@H](CCC(=O)N3CCCC3)NC(=O)[C@H](Cc3c[nH]c4ccccc34)NC2=O)C(=O)N[C@@H](Cc2ccc(OCCN)cc2)C(=O)N[C@@H](Cc2ccc3ccccc3c2)C(=O)N[C@@](C)(CC(C)C)C(=O)N1 [Compound 27] ([X1]SEWE(Pyrrolidide)[Dab][AEF][2Nal][αMeL]E[Dab][3Pal]-NHMe; lactam 3-6, N-10)
101

For the next question, use this compound.
Input: Dear colleague, I am looking for the recorded remaining at 1 h, 10 µM of the following compound: CSCC[C@H](NC(=O)[C@@H]1CSCC(=O)CSC[C@H](NC(=O)[C@@H](N)CCC(=O)O)C(=O)N[C@@H](Cc2c[nH]c3ccccc23)C(=O)N[C@@H](CC(C)C)C(=O)N[C@H]2CSCC(=O)CSC[C@H](NC(=O)[C@H](CC(N)=O)NC(=O)[C@H](CCCNC(=N)N)NC(=O)[C@H](Cc3ccc(O)cc3)NC(=O)[C@H](Cc3ccc(O)cc3)NC2=O)C(=O)N[C@@H](CC(N)=O)C(=O)N1)C(N)=O (single isomer, unassigned) [I4 (isomer 3), H-EC(4a)WLC(5a)YYRNC(5a)NC(4a)M-[NH2], reference compound]
Output: 99

---

# Target Entity: human IL-23R (Homo sapiens, UniProt Q5VWK5)
# Construct: Nanoluc luciferase (Nluc); secretion signal encoded by the plasmid (not specified); expressed in transfected cells; crude membranes used in the assay
# Method Description: Binding assay: displacement of fluorophore (TAMRA)-labelled reference compound from human IL-23R (BRET, Nluc-IL23R fusion protein membranes)
# Measurement Conditions: read-out: % displacement (hIL-23R binding)
*1 amine or outer side, *2 acyl side, *3 side chain or, on linkers, in order; H or OH if unused. Where a SMILES comes first, the peptide text is derived from it. Bridges are numbered along the chain shown (N, C = ends). [ ]: non-standard residue; d: D form. The star is where a group is joined. 2Nal = N[C@@H](Cc1ccc2ccccc2c1)C(=O)O; AEF = NCCOc1ccc(C[C@H](N)C(=O)O)cc1; X1 = O=C(Cc1ccc(CN[*:1])cc1)[*:2]; 3Pal = N[C@@H](Cc1cccnc1)C(=O)O; αMeL = CC(C)C[C@](C)(N)C(=O)O; CH2COCH2 = O=C(C[*:1])C[*:2]; NMeS = CN[C@@H](CO)C(=O)O; Pyrrolidide = C1CCN(*)C1; Dab = NCC[C@H](N)C(=O)O
Property Name: Emax

As a guide, the following entries are already answered.
CNC(=O)[C@H](Cc1cccnc1)NC(=O)C1(NC(=O)[C@@H]2CCC(=O)NCc3ccc(cc3)CC(=O)N[C@@H](CO)C(=O)N[C@H]3CCC(=O)NCC[C@H](NC(=O)[C@H](CCC(N)=O)NC(=O)[C@H](Cc4c[nH]c5ccccc45)NC3=O)C(=O)N[C@@H](Cc3ccc(OCCN)cc3)C(=O)N[C@@H](Cc3ccc4ccccc4c3)C(=O)N[C@@](C)(CC(C)C)C(=O)N2)CCOCC1
101%
CC(C)C[C@]1(C)NC(=O)[C@H](Cc2ccc3ccccc3c2)NC(=O)[C@H](Cc2ccc(OCCN)cc2)NC(=O)[C@@H]2CCNC(=O)CC[C@H](NC(=O)[C@H](CO)NC(=O)Cc3ccc(cc3)CNC(=O)CC[C@@H](C(=O)N[C@@H](CCN)C(=O)NCCCCc3cccnc3)NC1=O)C(=O)N[C@@H](Cc1c[nH]c3ccccc13)C(=O)N[C@@H](CCC(N)=O)C(=O)N2
103%
CC(C)C[C@]1(C)NC(=O)[C@H](Cc2ccc3ccccc3c2)NC(=O)[C@H](Cc2ccc(OCCN)cc2)NC(=O)[C@@H]2CSCC(=O)CSC[C@H](NC(=O)[C@H](CO)N(C)C(=O)Cc3ccc(cc3)CNC(=O)CC[C@@H](C(=O)N[C@@H](CCN)C(N)=O)NC1=O)C(=O)N[C@@H](Cc1c[nH]c3ccccc13)C(=O)N[C@@H](CCC(N)=O)C(=O)N2 [Ref 141, reference compound] ([X1][NMeS]CWQC[AEF][2Nal][αMeL]E[Dab]-NH2; linker 3-6 via CH2COCH2; lactam N-10)
102%
CC(C)C[C@]1(C)NC(=O)[C@H](Cc2ccc3ccccc3c2)NC(=O)[C@H](Cc2ccc(OCCN)cc2)NC(=O)[C@@H]2CCNC(=O)CC[C@H](NC(=O)[C@H](CO)NC(=O)Cc3ccc(cc3)CNC(=O)CC[C@@H](C(=O)N[C@@H](CCN)C(=O)N[C@@H](Cc3cccnc3)C(=O)N[C@H](Cc3c[nH]cn3)C(N)=O)NC1=O)C(=O)N[C@@H](Cc1c[nH]c3ccccc13)C(=O)N[C@@H](CCC(N)=O)C(=O)N2 [Compound 10] ([X1]SEWQ[Dab][AEF][2Nal][αMeL]E[Dab][3Pal][dH]-NH2; lactam 3-6, N-10)
91%
CSCC[C@H](NC(=O)[C@@H]1CSCC(=O)CSC[C@H](NC(=O)[C@@H](N)CCC(=O)O)C(=O)N[C@@H](Cc2c[nH]c3ccccc23)C(=O)N[C@@H](CC(C)C)C(=O)N[C@H]2CSCC(=O)CSC[C@H](NC(=O)[C@H](CC(N)=O)NC(=O)[C@H](CCCNC(=N)N)NC(=O)[C@H](Cc3ccc(O)cc3)NC(=O)[C@H](Cc3ccc(O)cc3)NC2=O)C(=O)N[C@@H](CC(N)=O)C(=O)N1)C(N)=O (single isomer, unassigned) [I4 (isomer 3), H-EC(4a)WLC(5a)YYRNC(5a)NC(4a)M-[NH2], reference compound]
84%
CC(C)C[C@]1(C)NC(=O)[C@H](Cc2ccc3ccccc3c2)NC(=O)[C@H](Cc2ccc(OCCN)cc2)NC(=O)[C@@H]2CCNC(=O)CC[C@H](NC(=O)[C@H](CO)NC(=O)Cc3ccc(cc3)CNC(=O)CC[C@@H](C(=O)N[C@@H](CCN)C(N)=O)NC1=O)C(=O)N[C@@H](Cc1c[nH]c3ccccc13)C(=O)N[C@@H](CCC(N)=O)C(=O)N2 [Ref 125, reference compound]
101%

For the 2 compounds below, give their Emax values.
1. CC(C)C[C@]1(C)NC(=O)[C@H](Cc2ccc3ccccc3c2)NC(=O)[C@H](Cc2ccc(OCCN)cc2)NC(=O)[C@@H]2CCNC(=O)CC[C@H](NC(=O)[C@H](CO)NC(=O)Cc3ccc(cc3)CNC(=O)CC[C@@H](C(=O)N[C@@H](CCN)C(N)=O)NC1=O)C(=O)N[C@@H](Cc1c[nH]c3ccccc13)C(=O)N[C@@H](CCC(=O)N1CCCC1)C(=O)N2 [Ref 146, reference compound] ([X1]SEWE(Pyrrolidide)[Dab][AEF][2Nal][αMeL]E[Dab]-NH2; lactam 3-6, N-10)
2. CNC(=O)[C@H](Cc1cccnc1)NC(=O)[C@H](CCN)NC(=O)[C@@H]1CCC(=O)NCc2ccc(cc2)CC(=O)N[C@@H](CO)C(=O)N[C@H]2CCC(=O)NCC[C@H](NC(=O)[C@H](CCC(=O)N3CCCC3)NC(=O)[C@H](Cc3c[nH]c4ccccc34)NC2=O)C(=O)N[C@@H](Cc2ccc(OCCN)cc2)C(=O)N[C@@H](Cc2ccc3ccccc3c2)C(=O)N[C@@](C)(CC(C)C)C(=O)N1 [Compound 27] ([X1]SEWE(Pyrrolidide)[Dab][AEF][2Nal][αMeL]E[Dab][3Pal]-NHMe; lactam 3-6, N-10)

Output:
1: 105%; 2: 97%

Input: What value of Emax has been reported for the following compound? CC(C)C[C@]1(C)NC(=O)[C@H](Cc2c[nH]c3ccccc23)NC(=O)[C@H](Cc2c[nH]c3ccccc23)NC(=O)[C@@H]2CSCC(=O)CSC[C@H](NC(=O)[C@H]([C@@H](C)O)NC(=O)[C@@H](NC(=O)CN)CSCC(=O)CSC[C@@H](C(=O)N[C@@H](CO)C(N)=O)NC1=O)C(=O)N[C@@H](Cc1c[nH]c3ccccc13)C(=O)N[C@@H](CCC(=O)O)C(=O)N2 (single isomer, unassigned) [I5 (isomer 3), reference compound]
Output: 102%
